Reported IC50 values are given for each entry in this list.
Target chain: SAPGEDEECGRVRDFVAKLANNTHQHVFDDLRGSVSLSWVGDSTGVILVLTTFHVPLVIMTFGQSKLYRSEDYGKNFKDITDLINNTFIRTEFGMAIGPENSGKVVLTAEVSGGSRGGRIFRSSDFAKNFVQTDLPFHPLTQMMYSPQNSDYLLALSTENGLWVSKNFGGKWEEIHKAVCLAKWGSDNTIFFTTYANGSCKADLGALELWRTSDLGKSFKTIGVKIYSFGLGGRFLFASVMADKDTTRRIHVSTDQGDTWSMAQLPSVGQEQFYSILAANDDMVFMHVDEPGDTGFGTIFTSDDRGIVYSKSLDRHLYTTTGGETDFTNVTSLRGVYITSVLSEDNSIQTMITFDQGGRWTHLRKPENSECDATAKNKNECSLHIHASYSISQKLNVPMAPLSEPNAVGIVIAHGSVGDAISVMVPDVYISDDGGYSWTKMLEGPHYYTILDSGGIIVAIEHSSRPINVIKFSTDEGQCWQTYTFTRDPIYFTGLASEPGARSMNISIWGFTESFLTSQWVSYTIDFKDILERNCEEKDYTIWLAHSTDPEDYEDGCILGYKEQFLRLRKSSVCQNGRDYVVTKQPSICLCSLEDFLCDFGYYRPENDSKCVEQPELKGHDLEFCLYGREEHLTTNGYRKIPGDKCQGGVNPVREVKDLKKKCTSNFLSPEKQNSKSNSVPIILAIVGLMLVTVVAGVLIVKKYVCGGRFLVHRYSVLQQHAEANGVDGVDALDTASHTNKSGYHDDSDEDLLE
readout name: IC50 (µM)

• COc1cccc(C(=O)N[C@@H](CC(C)C)C(=O)O)c1 = 6.8
• CC(C)(C)c1cc(C(=O)O)n(-c2ccccc2)n1 = 7.6
• CC(C)C[C@H](NC(=O)c1cccc(Cl)c1)C(=O)O = 4.5
• O=C(N[C@@H](CC12CC(C1)C2)C(=O)O)c1cc(Cl)cc(Cl)c1 = 18
• Cn1nc(C(C)(C)C)cc1C(=O)O = 8.3
